Entries and their z-score
TEST_TARGET: Metabotropic glutamate receptor 8 (Rattus norvegicus) (UniProt P70579)
Sequence (P70579 whole entry, looked up): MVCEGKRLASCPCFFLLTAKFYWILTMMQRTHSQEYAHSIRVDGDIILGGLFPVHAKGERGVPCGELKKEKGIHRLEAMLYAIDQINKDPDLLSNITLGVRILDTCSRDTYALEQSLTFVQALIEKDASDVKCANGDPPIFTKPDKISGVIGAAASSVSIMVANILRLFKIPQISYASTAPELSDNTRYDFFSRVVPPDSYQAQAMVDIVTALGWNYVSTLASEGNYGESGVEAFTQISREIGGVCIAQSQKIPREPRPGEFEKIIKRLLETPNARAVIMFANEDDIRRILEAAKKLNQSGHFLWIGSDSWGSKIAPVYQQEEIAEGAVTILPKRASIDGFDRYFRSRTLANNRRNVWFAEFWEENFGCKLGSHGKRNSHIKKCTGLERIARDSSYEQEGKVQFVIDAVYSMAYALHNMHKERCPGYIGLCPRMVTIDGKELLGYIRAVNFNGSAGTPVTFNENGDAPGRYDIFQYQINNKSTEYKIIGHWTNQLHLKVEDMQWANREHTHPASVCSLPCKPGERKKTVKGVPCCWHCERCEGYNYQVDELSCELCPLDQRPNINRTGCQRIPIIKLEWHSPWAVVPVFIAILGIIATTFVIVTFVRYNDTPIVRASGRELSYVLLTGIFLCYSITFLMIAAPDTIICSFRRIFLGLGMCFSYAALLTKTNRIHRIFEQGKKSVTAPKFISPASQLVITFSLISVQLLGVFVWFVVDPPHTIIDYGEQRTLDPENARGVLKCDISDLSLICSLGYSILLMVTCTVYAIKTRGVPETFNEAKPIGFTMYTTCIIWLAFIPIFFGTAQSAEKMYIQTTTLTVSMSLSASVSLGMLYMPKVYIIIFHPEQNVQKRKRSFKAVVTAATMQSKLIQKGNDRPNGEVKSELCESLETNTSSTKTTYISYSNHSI
TEST: mGluR8 Gi/Go-coupled signaling modulation – cell-based, rat, thallium flux, HTS, primary screen (AID 488969)
CONDITIONS_USED: HEK293 rat mGluR8, GIRK (G protein-gated inwardly rectifying potassium channel) thallium flux, FluoZin2; at 10 µM; stronger effect = higher value; submaximal glutamate (EC20) added with thallium
Whole data set: some 110,000 compounds, median “z-score” near -0.1, cut for the highest 2% near 2. The list comes from a sample in which the highest values are over-represented; it also holds close analogues and randomly drawn compounds.
Field format: numeric only.

Input line: Given CC(C)NS(=O)(=O)c1cccc2nsnc12 , state its recorded z-score.
Output line: -0.236

Input line: Given CN(C)c1ccc(CN(C(=O)COc2ccccc2)C2CCS(=O)(=O)C2)cc1 (stereo unspecified) , state its recorded z-score.
Output line: -0.709

Input line: Given CCCCOc1ccc(C(=O)N2CCC(C)CC2)cc1 , state its recorded z-score.
Output line: -0.401

Input line: Given Cc1ccc2ccc(S(=O)(=O)n3nc(C)cc3C)cc2c1 , state its recorded z-score.
Output line: -0.75

Input line: Given O=c1oc(-c2ccc(Br)o2)nc2ccccc12 , state its recorded z-score.
Output line: 5.63

Input line: Given Cc1ccc2nc(-c3ccc(Br)o3)oc(=O)c2c1 , state its recorded z-score.
Output line: -0.0466
